tested on: MDA-MB-231 breast; experiment: NCI tumour cell line growth inhibition, 48 h

COMPOUND	TGI
COc1cc2c(cc1OC)[C@@]1(C)C(=O)c3cc4c(cc3[C@H]1N(C)C2=O)OCO4	> 100 µM
CC1=CCC[C@]2(C)C1=CC(=O)O[C@H]2c1ccoc1	> 100 µM
NC(=O)NC(=O)c1ccc(NC(=O)CBr)cc1	6.48 µM
CC(C)(CCCCC(C)(C)NCC1COc2ccccc2O1)NCC1COc2ccccc2O1 (centres undefined)	> 10 µM
C[C@]12CCC(=O)C=C1CC[C@@H]1[C@@H]2CC[C@]2(C)C(=O)/C(=C/c3cccc(OCCN4CCOCC4)c3)C[C@@H]12	42.3 µM
C[C@H](CCC1=NCCN1)[C@H]1CC[C@H]2[C@@H]3CC[C@@H]4C[C@H](O)CC[C@]4(C)[C@H]3CC[C@]12C	> 41 µM
Cc1cc(NCC2CC/C(=C\C=C\c3ccccc3)C2=O)no1 (centres undefined)	> 100 µM
COc1cc(C2S/C(=C/c3ccccc3)C(=O)N2c2ccc([N+](=O)[O-])cc2)cc(OC)c1OC (centres undefined)	> 100 µM
COC1CC2CCC(C)[C@](O)(O2)C(=O)C(=O)N2CCCCC2C(=O)OC(C(C)CC2CCC(O)C(OC)C2)CC(=O)C(C)C=C(C)C(OC(=O)CN(C)C)C(OC)C(=O)C(C)CC(C)/C=C/C=C/C=C\1C (some centres undefined)	20.4 µM
CCNc1nc(N2CC(=O)Nc3cc(OC)ccc32)c2ccccc2n1	> 100 µM
O=C(Nc1ccc(Br)c(Cl)c1)c1cc(F)ccc1O	2.61 µM
CC(C)(O)[C@H]1[C@@H]2OC(=O)[C@H]1[C@]1(O)C[C@H]3OC34C(=O)O[C@H]2[C@@]41C (some centres undefined) (tested in a mixture with another compound)	> 100 µM
C/C(=C/CNc1ncnc2c1ncn2CCC#N)CO	> 100 µM
COc1cc(/C=N/NC2=NCCCN2)ccc1O	> 100 µM
Cc1n[nH]c(=O)n1/N=C/c1cccnc1	> 100 µM
O=C(NN1C(=O)c2ccccc2C1=O)c1ccccc1Nc1ccccc1C(=O)NN1C(=O)c2ccccc2C1=O	> 100 µM
[N-]=[N+]=CC(=O)OCC(N)C(=O)O (centres undefined)	> 100 µM
CCOC(=O)c1c(Cl)c2c(n1Cc1cc(OC)cc(OC)c1)-c1oncc1CCC2	> 91.7 µM
C=C1CC(COc2ccc3ccc(=O)oc3c2)(c2ccccc2)OC1=O (centres undefined)	6.88 µM
